- method_notes: recombinant UMI read abundance after kanamycin selection (control-corrected) (log10(CPM+1)); higher = more efficient recombination; extreme values may be limits of the assay; sequences stand for … in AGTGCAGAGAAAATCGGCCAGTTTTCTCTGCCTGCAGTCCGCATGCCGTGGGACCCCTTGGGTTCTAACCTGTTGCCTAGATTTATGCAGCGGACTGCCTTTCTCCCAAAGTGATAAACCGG…AGGTTGGTTTCACT; site = the 11-nt donor;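 note: IS621 bridge recombinase in Escherichia coli cells against a fixed T5 target plasmid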
We begin with a simple list: items and their reported recombinant UMI read abundance (log10).

{"chain": "CTTGTATCATGGACCGGTTTTCCCGGTAATCCGTATTTGGC (site CTAGTATCTGT)", "recombinant UMI read abundance (log10)": 0.315}
{"chain": "CAGTCACCATGGACCGGTTTTCCCGGTAATCCGTATTTGTA (site CAGTCACCTTA)", "recombinant UMI read abundance (log10)": 0.0069}
{"chain": "GTAGCAGCATGGACCGGTTTTCCCGGTAATCCGTATTTGGA (site GTAGCAGCTTC)", "recombinant UMI read abundance (log10)": 0.62}
{"chain": "TGAGAACCATGGACCGGTTTTCCCGGTAATCCGTATTTGAT (site GACATTGCTCA)", "recombinant UMI read abundance (log10)": 0.0061}
{"chain": "GATTATCCATGGACCGGTTTTCCCGGTAATCCGTATTTGCG (site GATTATCCTTG)", "recombinant UMI read abundance (log10)": 0}
{"chain": "TCAGAGACATGGACCGGTTTTCCCGGTAATCCGTATTTGCA (site TCAGAGACTTG)", "recombinant UMI read abundance (log10)": 2.49}
{"chain": "GTGCTACCATGGACCGGTTTTCCCGGTAATCCGTATTTGCT (site ATGCTACCTAG)", "recombinant UMI read abundance (log10)": 0}
{"chain": "GCGAACACATGGACCGGTTTTCCCGGTAATCCGTATTTGCT (site GCGAAAACTAG)", "recombinant UMI read abundance (log10)": 0}
{"chain": "TCCAATTCATGGACCGGTTTTCCCGGTAATCCGTATTTGCC (site TCCAGTTCTGG)", "recombinant UMI read abundance (log10)": 0}
{"chain": "GACCTCACATGGACCGGTTTTCCCGGTAATCCGTATTTGGG (site GACCTCACTCC)", "recombinant UMI read abundance (log10)": 0.0144}
{"chain": "GTGGTCGCATGGACCGGTTTTCCCGGTAATCCGTATTTGGC (site GTGGTCGCTGC)", "recombinant UMI read abundance (log10)": 2.91}
{"chain": "GTCGCCCCATGGACCGGTTTTCCCGGTAATCCGTATTTGGC (site GTCGCCCCTGC)", "recombinant UMI read abundance (log10)": 0}
{"chain": "GGCTACCCATGGACCGGTTTTCCCGGTAATCCGTATTTGTT (site GGCCACCCTAA)", "recombinant UMI read abundance (log10)": 0.268}
{"chain": "GTAGTTTCATGGACCGGTTTTCCCGGTAATCCGTATTTGTA (site GTAGTTTCTTA)", "recombinant UMI read abundance (log10)": 2.61}
{"chain": "CGCTCGACATGGACCGGTTTTCCCGGTAATCCGTATTTGTT (site CGATCGACTAA)", "recombinant UMI read abundance (log10)": 0}
{"chain": "CCTGGTGCATGGACCGGTTTTCCCGGTAATCCGTATTTGAT (site CCCGGTGCTAT)", "recombinant UMI read abundance (log10)": 0.00946}
{"chain": "GTTTATCCATGGACCGGTTTTCCCGGTAATCCGTATTTGCT (site GGTTATCCTAG)", "recombinant UMI read abundance (log10)": 0}
{"chain": "ACGAAGACATGGACCGGTTTTCCCGGTAATCCGTATTTGCG (site AGGAAGACTTG)", "recombinant UMI read abundance (log10)": 0}
{"chain": "CGGACGTCATGGACCGGTTTTCCCGGTAATCCGTATTTGCT (site CGGACTTCTAG)", "recombinant UMI read abundance (log10)": 0.597}
{"chain": "GTGCGGGCATGGACCGGTTTTCCCGGTAATCCGTATTTGGT (site GTGCGGGCTAC)", "recombinant UMI read abundance (log10)": 0.486}
{"chain": "GCTCGCCCATGGACCGGTTTTCCCGGTAATCCGTATTTGAT (site GCTTGCCCTAT)", "recombinant UMI read abundance (log10)": 0.00792}
{"chain": "CCGTTACCATGGACCGGTTTTCCCGGTAATCCGTATTTGAG (site CCGTTACCTCT)", "recombinant UMI read abundance (log10)": 0.0156}
{"chain": "ACACGTCCATGGACCGGTTTTCCCGGTAATCCGTATTTGAC (site ACACGTCCTGT)", "recombinant UMI read abundance (log10)": 0.959}
{"chain": "CTCTACGCATGGACCGGTTTTCCCGGTAATCCGTATTTGCT (site CTCTACTCTAG)", "recombinant UMI read abundance (log10)": 2.89}
{"chain": "CATGTTCCATGGACCGGTTTTCCCGGTAATCCGTATTTGTG (site CATGTTCCTCA)", "recombinant UMI read abundance (log10)": 0.0131}
{"chain": "TGGCCGGCATGGACCGGTTTTCCCGGTAATCCGTATTTGGC (site TGGCCGTCTGC)", "recombinant UMI read abundance (log10)": 0}
